- PROCEDURE_SUMMARY: Solubility test (dissolving time in water)
- Type: physicochemical
- CONDITION_SUMMARY: 50 mg sample in 5 ml water, 25° C., about 600 rounds/minute stirring, time until completely dissolved; hydrochloride
Counter-ions that a name gives are not always drawn. Marks after values point to notes of the source that are not given here.
RECORDED_METRIC: Dissolving time

Reference set (6 entries):
| COMPOUND | RECORDED_MEASUREMENT |
| --- | --- |
| COc1cccc2c1C(=O)c1c(O)c3c(c(O)c1C2=O)C[C@@](O)(C(=O)CO)C[C@@H]3O[C@H]1C[C@H](N)[C@H](O)[C@H](C)O1 [Example 57, doxorubicin hydrochloride] | 1.5 to 2 min |
| COc1cccc2c1C(=O)c1c(O)c3c(c(O)c1C2=O)C[C@@](O)(C(=O)CO)C[C@@H]3O[C@H]1C[C@H](N)[C@H](O)[C@H](C)O1 [Example 58, doxorubicin hydrochloride] | 14.5 to 15 min |
| COc1cccc2c1C(=O)c1c(O)c3c(c(O)c1C2=O)C[C@@](O)(C(=O)CO)C[C@@H]3O[C@H]1C[C@H](N)[C@H](O)[C@H](C)O1 [Example 56, doxorubicin hydrochloride] | 1.5 to 2 min |
| COc1cccc2c1C(=O)c1c(O)c3c(c(O)c1C2=O)C[C@@](O)(C(=O)CO)C[C@@H]3O[C@H]1C[C@H](N)[C@H](O)[C@H](C)O1 [Example 51, doxorubicin hydrochloride] | 1.5 to 2 min |
| COc1cccc2c1C(=O)c1c(O)c3c(c(O)c1C2=O)C[C@@](O)(C(=O)CO)C[C@@H]3O[C@H]1C[C@H](N)[C@H](O)[C@H](C)O1 [Example 2, doxorubicin hydrochloride] | 4 to 4.5 min |
| COc1cccc2c1C(=O)c1c(O)c3c(c(O)c1C2=O)C[C@@](O)(C(=O)CO)C[C@@H]3O[C@H]1C[C@H](N)[C@H](O)[C@H](C)O1 [Example 46, doxorubicin hydrochloride] | 1.5 to 2 min |

Entry under review: COc1cccc2c1C(=O)c1c(O)c3c(c(O)c1C2=O)C[C@@](O)(C(=O)CO)C[C@@H]3O[C@H]1C[C@H](N)[C@H](O)[C@H](C)O1 [Example 55, doxorubicin hydrochloride] . Reported Dissolving time?
1.5 to 2 min

Now the same for COc1cccc2c1C(=O)c1c(O)c3c(c(O)c1C2=O)C[C@@](O)(C(=O)CO)C[C@@H]3O[C@H]1C[C@H](N)[C@H](O)[C@H](C)O1 [DXR.USP (comparison), doxorubicin hydrochloride]
3-3.5* minute

---

- PROCEDURE_SUMMARY: Average particle diameter, microscopic method (Heywood circle-corresponding diameter)
- Type: physicochemical
- CONDITION_SUMMARY: 10 typical crystals on photograph, hydrochloride
Counter-ions that a name gives are not always drawn.
Some molecules, each annotated with its measured Average particle diameter.

| MOLECULE | Average particle diameter |
| --- | --- |
| COc1cccc2c1C(=O)c1c(O)c3c(c(O)c1C2=O)C[C@@](O)(C(=O)CO)C[C@@H]3O[C@H]1C[C@H](N)[C@H](O)[C@H](C)O1 [Example 49, doxorubicin hydrochloride] | 71 μm |
| COc1cccc2c1C(=O)c1c(O)c3c(c(O)c1C2=O)C[C@@](O)(C(=O)CO)C[C@@H]3O[C@H]1C[C@H](N)[C@H](O)[C@H](C)O1 [Example 22, doxorubicin hydrochloride] | 47 μm |

Please turn your attention to the following entry.
Query: Average particle diameter; subject: COc1cccc2c1C(=O)c1c(O)c3c(c(O)c1C2=O)C[C@@](O)(C(=O)CO)C[C@@H]3O[C@H]1C[C@H](N)[C@H](O)[C@H](C)O1 [Example 45, doxorubicin hydrochloride]
46 μm

Provenance of the data: patent US6653455B1
